# Test system: methylphenidate-induced gnawing
# method.description: Methylphenidate antagonism
# Assay type: in vivo, mice
# assay.context: i.p. test substance; mice; methylphenidate s.c. 60 mg/kg
Structures can show the parent of a compound that is named as a salt.
Label rule, in plain words: MePh Antg. ED50(ip) of 0.2 µmol/kg and up is rule met, under 0.2 µmol/kg is rule not met.

molecule: Cc1ccc2c(c1)c(C1=CCN(C)CC1)cn2-c1ccc(F)cc1.Cl
class: rule not met

molecule: CN1CCN(c2cn(-c3ccccc3)c3ccc(Cl)cc23)CC1 [Lu 23-015, reference compound]
class: rule met

molecule: O=C1CCCN1CCN1CC=C(c2cn(-c3ccc(F)cc3)c3ccc([N+](=O)[O-])cc23)CC1 [Lu 23-024, hydrochloride]
class: rule met

molecule: O=C1NCCN1CCN1CCN(c2cn(-c3ccc(F)cc3)c3ccc(C(F)(F)F)cc23)CC1 [Lu 23-001, dihydrobromide]
class: rule met

molecule: CN1CC=C(c2cn(-c3ccsc3)c3ccc(Cl)cc23)CC1.O=C(O)/C=C\C(=O)O
class: rule met

molecule: OCCN1CCN([C@@H]2C[C@@H](c3ccc(F)cc3)c3ccc(C(F)(F)F)cc32)CC1 (racemic) [Tefludazine, reference compound]
class: rule not met

molecule: OCCN1CCN(CC/C=C2/c3ccccc3Sc3ccc(C(F)(F)F)cc32)CC1 [Cis(Z)Flupentixol, reference compound]
class: rule not met

====

# target: dopamine (DA) D-2 receptors (Rattus norvegicus)
# Construct: DA D-2 receptors in rat striatal membranes; from tissue; host or cells: rat striatal membranes
# Sequence (P61169 whole entry): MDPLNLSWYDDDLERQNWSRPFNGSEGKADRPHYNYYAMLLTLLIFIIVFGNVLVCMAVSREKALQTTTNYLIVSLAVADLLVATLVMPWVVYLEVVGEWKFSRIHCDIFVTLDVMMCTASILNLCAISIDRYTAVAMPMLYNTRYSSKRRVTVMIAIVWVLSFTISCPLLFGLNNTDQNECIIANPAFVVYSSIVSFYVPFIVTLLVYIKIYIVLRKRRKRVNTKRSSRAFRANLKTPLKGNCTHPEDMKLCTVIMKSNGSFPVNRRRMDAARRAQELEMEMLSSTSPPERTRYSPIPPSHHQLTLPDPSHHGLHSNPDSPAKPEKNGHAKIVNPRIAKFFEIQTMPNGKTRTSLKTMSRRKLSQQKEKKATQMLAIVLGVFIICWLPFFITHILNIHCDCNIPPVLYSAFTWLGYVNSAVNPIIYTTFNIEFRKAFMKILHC
# method.description: 3H-spiroperidol binding, dopamine D-2 receptors in rat striatal membranes
# assay.context: read-out: 3H-Spiroperidol bindings DA-2 receptors IC50; rat striatal membranes, in vitro
pIC50: −log10 of the molar value.
recorded.metric: pIC50

compound.string: Fc1ccc(-n2cc(C3=CCN(CCn4cccc4)CC3)c3cc(C(F)(F)F)ccc32)cc1
target: dopamine (DA) D-2 receptors (Rattus norvegicus)
recorded.number: 7.51

====

# target: dopamine (DA) D-2 receptors (Rattus norvegicus)
# Construct: DA D-2 receptors in rat striatal membranes; from tissue; host or cells: rat striatal membranes
# method.description: 3H-spiroperidol binding, dopamine D-2 receptors in rat striatal membranes
# Method: 4. ^3 H-spiroperidol bindings The affinity of compounds to dopamine (DA) D-2 receptors and serotomin2 (5-HT2) receptors was determined by in vitro receptor binding technique. Arnt, J., J. Hyttel and J.-J. Larsen: Acta pharmacol. et toxicol.
Structures can show the parent of a compound that is named as a salt.
# label = satisfied if IC50 < 6 nM else not satisfied

compound: CN1CC=C(c2cn(-c3ccc(F)cc3)c3ccc(C(F)(F)F)cc23)CC1.O=C(O)C(=O)O [Lu 21-120, oxalate]
target: dopamine (DA) D-2 receptors (Rattus norvegicus)
class: satisfied
--
compound: O=C1OCCN1CCN1CC=C(c2cn(-c3ccc(F)cc3)c3ccc([N+](=O)[O-])cc23)CC1
target: dopamine (DA) D-2 receptors (Rattus norvegicus)
class: satisfied
--
compound: OCCN1CC=C(c2cn(-c3ccc(F)cc3)c3ccc(F)cc23)CC1
target: dopamine (DA) D-2 receptors (Rattus norvegicus)
class: not satisfied
--
compound: Br.CN1CC=C(c2cn(-c3ccc(F)cc3)c3ccc(Cl)cc23)CC1 [Lu 22-117, hydrobromide]
target: dopamine (DA) D-2 receptors (Rattus norvegicus)
class: satisfied
--
compound: O=[N+]([O-])c1ccc2c(c1)c(C1=CCN(CCO)CC1)cn2-c1ccc(F)cc1
target: dopamine (DA) D-2 receptors (Rattus norvegicus)
class: satisfied
--
compound: CC(C)CN1CC=C(c2cn(-c3ccc(F)cc3)c3ccc(Cl)cc23)CC1 [Lu 22-134, hydrobromide]
target: dopamine (DA) D-2 receptors (Rattus norvegicus)
class: satisfied
--
compound: OCCN1CC=C(c2cn(-c3ccc(F)cc3)c3ccc(C(F)(F)F)cc23)CC1
target: dopamine (DA) D-2 receptors (Rattus norvegicus)
class: not satisfied
--
compound: OCCCN1CC=C(c2cn(-c3ccc(F)cc3)c3ccc(F)cc23)CC1
target: dopamine (DA) D-2 receptors (Rattus norvegicus)
class: not satisfied
--
compound: Cc1ccc2c(c1)c(C1=CCN(C)CC1)cn2-c1ccc(F)cc1.Cl [Lu 20-089, hydrochloride]
target: dopamine (DA) D-2 receptors (Rattus norvegicus)
class: satisfied
--
compound: Cc1nccn1CCN1CC=C(c2cn(-c3ccc(F)cc3)c3ccc(C(F)(F)F)cc23)CC1
target: dopamine (DA) D-2 receptors (Rattus norvegicus)
class: not satisfied
--
compound: CN1CC=C(c2cn(-c3ccc(F)cc3)c3ccc([N+](=O)[O-])cc23)CC1
target: dopamine (DA) D-2 receptors (Rattus norvegicus)
class: satisfied
--
compound: CN1CC=C(c2cn(-c3ccc(F)cc3)c3ccccc23)CC1.Cl [Lu 23-083, hydrochloride]
target: dopamine (DA) D-2 receptors (Rattus norvegicus)
class: satisfied

====

# target: 5-HT2 receptor (Rattus norvegicus, UniProt P14842)
# Construct: from tissue; host or cells: living rats (in vivo), CNS
# Sequence (P14842 whole entry): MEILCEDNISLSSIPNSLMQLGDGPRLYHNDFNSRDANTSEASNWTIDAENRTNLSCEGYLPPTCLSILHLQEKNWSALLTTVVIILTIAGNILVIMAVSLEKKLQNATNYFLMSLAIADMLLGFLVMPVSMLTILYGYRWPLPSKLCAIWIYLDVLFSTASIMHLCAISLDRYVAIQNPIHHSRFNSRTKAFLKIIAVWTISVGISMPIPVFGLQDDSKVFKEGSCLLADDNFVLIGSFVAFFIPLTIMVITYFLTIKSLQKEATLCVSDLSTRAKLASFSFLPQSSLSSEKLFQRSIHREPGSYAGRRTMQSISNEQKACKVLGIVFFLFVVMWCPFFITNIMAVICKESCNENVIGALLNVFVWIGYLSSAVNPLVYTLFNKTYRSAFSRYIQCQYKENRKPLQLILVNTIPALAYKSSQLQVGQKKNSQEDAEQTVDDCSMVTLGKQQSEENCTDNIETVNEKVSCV
# method.description: Quipazine inhibition (head twitches)
# Type: in vivo
# assay.context: sc 2 hours before quipazine 15 umol/kg sc
# Experimental: Quipazine and a number of other compounds, which increase 5-HT2 receptor activity in the CNS, induce a characteristic rapid shake (twitch) of the head. This response is inhibited by 5-HT2 receptor antagonists (Vetulani et al. 1980, Arnt et al. 1984). The test compound or saline is injected subcutaneously 2 hours before subcutaneous injection of quipazine hemimalecate (15umol/kg). At least 3 dose groups, each consisting of at least 4 rats, are used. […] ED 50 values are calculated by log-probit analysis. […]
Structures can show the parent of a compound that is named as a salt.
Recorded measurements of Qvipaz. inh. ED50(sc), one per entry
recorded.metric: Qvipaz. inh. ED50(sc) (µmol/kg)

compound: CN1CC=C(c2cn(-c3ccc(F)cc3)c3ccc(C(F)(F)F)cc23)CC1.O=C(O)C(=O)O [Lu 21-120]
unit.symbol: µmol/kg
limit.qualifier: =
recorded.number: 0.03
//
compound: O=C1CCCN1CCN1CCN(c2cn(-c3ccc(F)cc3)c3ccc(C(F)(F)F)cc23)CC1 [Lu 22-133]
unit.symbol: µmol/kg
limit.qualifier: =
recorded.number: 0.15
//
compound: Cc1nccn1CCN1CC=C(c2cn(-c3ccc(F)cc3)c3ccc(C(F)(F)F)cc23)CC1 [Lu 23-173]
unit.symbol: µmol/kg
limit.qualifier: >
recorded.number: 7.1
//
compound: OCCN1CC=C(c2cn(-c3ccc(F)cc3)c3ccc(C(F)(F)F)cc23)CC1 [Lu 23-156]
unit.symbol: µmol/kg
limit.qualifier: =
recorded.number: 0.03
//
compound: CN1CC=C(c2cn(-c3ccsc3)c3ccc(Cl)cc23)CC1.O=C(O)/C=C\C(=O)O [Lu 24-001]
unit.symbol: µmol/kg
limit.qualifier: =
recorded.number: 0.19
//
compound: Fc1ccc(-n2cc(N3CCNCC3)c3cc(C(F)(F)F)ccc32)cc1 [Lu 21-153]
unit.symbol: µmol/kg
limit.qualifier: =
recorded.number: 0.37
//
compound: Br.CN1CC=C(c2cn(-c3ccc(F)cc3)c3ccc(Cl)cc23)CC1 [Lu 22-117]
unit.symbol: µmol/kg
limit.qualifier: =
recorded.number: 0.052
//
compound: OCCN1CCN(c2cn(-c3ccc(F)cc3)c3ccc(C(F)(F)F)cc23)CC1 [Lu 21-152]
unit.symbol: µmol/kg
limit.qualifier: =
recorded.number: 0.023
//
compound: Fc1ccc(-n2cc(C3=CCN(CCn4ccnc4)CC3)c3cc(C(F)(F)F)ccc32)cc1 [Lu 24-002]
unit.symbol: µmol/kg
limit.qualifier: >
recorded.number: 0.45
//
compound: OCCN1CCN(CC/C=C2/c3ccccc3Sc3ccc(C(F)(F)F)cc32)CC1 [Cis(Z)Flupentixol, reference compound]
unit.symbol: µmol/kg
limit.qualifier: =
recorded.number: 0.042
//
compound: Fc1ccc(-n2cc(C3=CCN(CCn4cccc4)CC3)c3cc(C(F)(F)F)ccc32)cc1 [Lu 23-172]
unit.symbol: µmol/kg
limit.qualifier: >
recorded.number: 0.55
//
compound: Cc1ccc2c(c1)c(C1=CCN(C)CC1)cn2-c1ccc(F)cc1.Cl [Lu 20-089]
unit.symbol: µmol/kg
limit.qualifier: =
recorded.number: 0.12
//
compound: OCCN1CCN([C@@H]2C[C@@H](c3ccc(F)cc3)c3ccc(C(F)(F)F)cc32)CC1 (racemic) [Tefludazine, reference compound]
unit.symbol: µmol/kg
limit.qualifier: =
recorded.number: 0.06
//
compound: CN1CCN(c2cn(-c3ccccc3)c3ccc(Cl)cc23)CC1 [Lu 23-015, reference compound]
unit.symbol: µmol/kg
limit.qualifier: =
recorded.number: 0.062
//
compound: O=C1NCCN1CCN1CCC(c2cn(-c3ccc(F)cc3)c3ccccc23)CC1 [Lu 23-086]
unit.symbol: µmol/kg
limit.qualifier: =
recorded.number: 0.036
//
compound: O=C1NCCN1CCN1CC=C(c2cn(-c3ccc(F)cc3)c3ccc(C(F)(F)F)cc23)CC1 [Lu 23-157]
unit.symbol: µmol/kg
limit.qualifier: =
recorded.number: 0.12
//
compound: CN1CC=C(c2cn(-c3ccc(F)cc3)c3ccc([N+](=O)[O-])cc23)CC1 [Lu 22-135]
unit.symbol: µmol/kg
limit.qualifier: =
recorded.number: 0.009
//
compound: O=C1NCCN1CCN1CCN(c2cn(-c3ccc(F)cc3)c3ccc(C(F)(F)F)cc23)CC1 [Lu 23-001, dihydrobromide]
unit.symbol: µmol/kg
limit.qualifier: =
recorded.number: 0.047
//
compound: CC(C)CN1CC=C(c2cn(-c3ccc(F)cc3)c3ccc(Cl)cc23)CC1 [Lu 22-134, hydrobromide]
unit.symbol: µmol/kg
limit.qualifier: =
recorded.number: 2.5
//
compound: OCCN1CC=C(c2c[nH]c3ccc(Cl)cc23)CC1 [Lu 23-143, reference compound]
unit.symbol: µmol/kg
limit.qualifier: =
recorded.number: 4.5
//
compound: CN1CC=C(c2cn(-c3ccc(F)cc3)c3ccc(F)cc23)CC1.Cl [Lu 21-018]
unit.symbol: µmol/kg
limit.qualifier: =
recorded.number: 0.15
//
compound: CN1CC=C(c2cn(-c3ccc(F)cc3)c3ccccc23)CC1.Cl [Lu 23-083]
unit.symbol: µmol/kg
limit.qualifier: =
recorded.number: 0.15

All values here come from patent US4710500A.
